Target: PCSK9 (Homo sapiens, UniProt Q8NBP7)
Construct: biotin (biotinylated); purchased
Sequence (Q8NBP7 153-692): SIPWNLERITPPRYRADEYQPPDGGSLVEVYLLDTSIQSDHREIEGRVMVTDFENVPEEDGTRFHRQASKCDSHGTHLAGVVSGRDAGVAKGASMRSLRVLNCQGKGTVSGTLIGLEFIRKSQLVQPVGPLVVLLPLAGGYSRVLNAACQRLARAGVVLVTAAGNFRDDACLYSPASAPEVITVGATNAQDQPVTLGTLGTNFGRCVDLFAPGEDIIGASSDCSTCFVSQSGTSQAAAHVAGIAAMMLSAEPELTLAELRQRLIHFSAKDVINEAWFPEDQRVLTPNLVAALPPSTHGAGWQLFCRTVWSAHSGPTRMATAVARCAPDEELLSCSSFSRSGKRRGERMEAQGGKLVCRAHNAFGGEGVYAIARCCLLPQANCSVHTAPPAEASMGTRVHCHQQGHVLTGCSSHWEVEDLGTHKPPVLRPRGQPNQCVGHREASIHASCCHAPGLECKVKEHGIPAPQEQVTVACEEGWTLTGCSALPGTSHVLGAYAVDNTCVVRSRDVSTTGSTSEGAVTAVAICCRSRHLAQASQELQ
Test: PCSK9 Alexa FRET Plus TR-FRET assay
Assay type: binding
Settings: Ki calculated from IC50 and KD of AF cyclic peptide Reagent B; 0.5 nM PCSK9, 960 nM AF cyclic peptide; read-out: Alexa FRET Plus TR-FRET
Recorded Metric: Ki

Molecule: COc1ccc(C[C@@H]2NC(=O)[C@H]([C@@H](C)O)NC(=O)[C@@H]3[C@@H]4CCN3C(=O)[C@@H]3Cc5cn(c6ccc(F)cc56)CCCCCCN(Cc5ccc(cc5)CCNC(=O)[C@]5(C)CCCN5C2=O)C(=O)CCC(=O)N[C@@H](CNC(=O)COCCOCCNC(=O)COCCOCCNC(=O)CC[C@H](NC(=O)CCCCCCCCCCCCCCCCC(=O)O)C(=O)O)C(=O)N[C@H](CNC(=O)CCOCCOCC[N+](C)(C)C)C(=O)N[C@@H](Cc2cccc(c2)CNC(=O)CO4)C(=O)N3)cc1 [Ex-63]
Recorded Metric: Ki
Value Reported: < 0.006 nM

Molecule: COc1ccc(C[C@@H]2NC(=O)[C@H]([C@@H](C)O)NC(=O)[C@@H]3[C@@H]4CCN3C(=O)[C@@H]3Cc5cn(c6ccc(F)cc56)CCCCCCN(Cc5ccc(cc5)CCNC(=O)[C@]5(C)CCCN5C2=O)C(=O)CCC(=O)N[C@@H](C)C(=O)N[C@H](CNC(=O)[C@@H](CCCC[N+](C)(C)C)NC(=O)COCCOCCNC(=O)COCCOCCNC(=O)CC[C@H](NC(=O)CC[C@H](NC(=O)CCCCCCCCCCCCCCCCC(=O)O)C(=O)O)C(=O)O)C(=O)N[C@@H](Cc2cccc(c2)CNC(=O)CO4)C(=O)N3)cc1 [Ex-55]
Recorded Metric: Ki
Value Reported: 0.012 nM

Molecule: COc1ccc(C[C@@H]2NC(=O)[C@H]([C@@H](C)O)NC(=O)[C@@H]3[C@@H]4CCN3C(=O)[C@@H]3Cc5cn(c6ccc(F)cc56)CCCCCCN(Cc5ccc(cc5)CCNC(=O)[C@]5(C)CCCN5C2=O)C(=O)CCC(=O)N[C@@H](CNC(=O)CCOCCOCC[N+](C)(C)CCNC(=O)COCCOCCNC(=O)COCCOCCNC(=O)CC[C@H](NC(=O)CCCCCCCCCCCCCCC(=O)O)C(=O)O)C(=O)N[C@H](CNC(=O)CCOCCOCC[N+](C)(C)C)C(=O)N[C@@H](Cc2cccc(c2)CNC(=O)CO4)C(=O)N3)cc1 [Ex-64]
Recorded Metric: Ki
Value Reported: 0.012 nM

Molecule: COc1ccc(C[C@@H]2NC(=O)[C@H]([C@@H](C)O)NC(=O)[C@@H]3[C@@H]4CCN3C(=O)[C@@H]3Cc5cn(c6ccc(F)cc56)C/C=C/CCCN(Cc5ccc(cc5)CCNC(=O)[C@]5(C)CCCN5C2=O)C(=O)CCC(=O)N[C@@H](C)C(=O)N[C@H](CNC(=O)CCOCCOCC[N+](C)(C)CCNC(=O)COCCOCCNC(=O)COCCOCCNC(=O)CC[C@H](NC(=O)CC[C@H](NC(=O)CCCCCCCCCCCCCCCCC(=O)O)C(=O)O)C(=O)O)C(=O)N[C@@H](Cc2cccc(c2)CNC(=O)CO4)C(=O)N3)cc1 [Ex-44]
Recorded Metric: Ki
Value Reported: < 0.006 nM

Molecule: COc1ccc(C[C@@H]2NC(=O)[C@H]([C@@H](C)O)NC(=O)[C@@H]3[C@@H]4CCN3C(=O)[C@@H]3Cc5cn(c6ccc(F)cc56)CCCCCCN(Cc5ccc(cc5)CCNC(=O)[C@]5(C)CCCN5C2=O)C(=O)CCC(=O)N[C@@H](C)C(=O)N[C@H](CNC(=O)CCOCCOCC[N+](C)(C)CCNC(=O)COCCOCCNC(=O)COCCOCCNC(=O)CC[C@H](NC(=O)CCCCCCCCCCCCCCC(=O)N[C@@H](CC(=O)O)C(=O)O)C(=O)O)C(=O)N[C@@H](Cc2cccc(c2)CNC(=O)CO4)C(=O)N3)cc1 [Ex-56]
Recorded Metric: Ki
Value Reported: < 0.006 nM
